Item-by-item account of pIC50
# assay.target: DYRK3 (Homo sapiens)
# Sequence (O43781 1-588): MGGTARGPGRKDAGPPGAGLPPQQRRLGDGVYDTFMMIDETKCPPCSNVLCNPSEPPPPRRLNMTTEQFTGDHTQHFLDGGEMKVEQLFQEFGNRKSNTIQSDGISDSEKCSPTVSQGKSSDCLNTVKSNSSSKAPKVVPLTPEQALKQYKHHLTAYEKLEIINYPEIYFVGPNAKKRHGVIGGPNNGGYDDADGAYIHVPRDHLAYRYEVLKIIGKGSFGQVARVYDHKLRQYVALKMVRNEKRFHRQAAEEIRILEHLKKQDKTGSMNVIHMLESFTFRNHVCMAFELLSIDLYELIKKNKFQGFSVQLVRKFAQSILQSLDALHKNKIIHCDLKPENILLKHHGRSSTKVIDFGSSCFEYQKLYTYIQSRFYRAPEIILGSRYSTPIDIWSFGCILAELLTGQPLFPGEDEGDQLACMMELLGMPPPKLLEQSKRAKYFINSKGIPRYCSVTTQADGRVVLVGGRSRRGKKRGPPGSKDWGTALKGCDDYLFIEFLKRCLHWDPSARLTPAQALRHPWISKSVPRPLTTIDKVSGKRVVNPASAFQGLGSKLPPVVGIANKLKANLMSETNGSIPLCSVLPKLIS
pIC50: −log10 of the molar value.

Worked examples follow.
| compound | test.readout | observed |
| --- | --- | --- |
| CC#C[C@@H]1[C@H](C)CNC(=O)N1c1nc2c3c(ccc2s1)OCC3 (stereo in doubt) | pIC50 | < 6.00 |
| CC#CC1N(c2nc3c4c(ccc3s2)OCCO4)C(=O)NC12CC2 (racemic) | pIC50 | 6.00 to 7.00 |
| CC#CC1C[C@H](C)NC(=O)N1c1nc2c3c(ccc2s1)OCC3 (stereo in doubt) [Example 17] | pIC50 | < 6.00 |
| CC#CC1C[C@H](C)NC(=O)N1c1nc2c3c(ccc2s1)OCC3 (stereo in doubt) [Example 16] | pIC50 | < 6.00 |
| CC#C[C@@H]1[C@@H](C)CNC(=O)N1c1nc2c3c(ccc2s1)OCC3 (stereo in doubt) | pIC50 | < 6.00 |
| CC#C[C@H]1[C@H](C)CNC(=O)N1c1nc2c3c(ccc2s1)OCC3 (stereo in doubt) | pIC50 | < 6.00 |
| CC#C[C@H]1[C@@H](C)CNC(=O)N1c1nc2c3c(ccc2s1)OCC3 (stereo in doubt) | pIC50 | < 6.00 |
| CC#CC1N(c2nc3c4c(ccc3s2)OCC4)C(=O)NC12CCC2 (single isomer, unassigned) | pIC50 | 6.00 to 7.00 |

Asked: Give the reported pIC50 for this compound. CC#CC1N(c2nc3c4c(ccc3s2)OCC4)C(=O)NC12CCCC2 (single isomer, unassigned) [Example 23]
Given back: < 6.00

Asked: Respond only with pIC50 recorded for CC#CC1CCNC(=O)N1c1nc2c3c(ccc2s1)OCCO3 (single isomer, unassigned)
Given back: < 6.00

Asked: Name the recorded pIC50 of the item CC#CC1CCNC(=O)N1c1nc2c3c(ccc2s1)OCC3 (racemic) in your answer.
Given back: 6.00 to 7.00

Asked: Identify measured pIC50 associated with CC#CC1N(c2nc3c4c(ccc3s2)OCC4)C(=O)NC12CCCC2 (single isomer, unassigned) [Example 22]
Given back: 6.00 to 7.00

Asked: Please supply the value of reported pIC50 for the item CC#CC1N(c2nc3c4c(ccc3s2)OCC4)C(=O)NC12CC2 (racemic)
Given back: 6.00 to 7.00

Source listed as patent US20250326767A1.
